experimental.details: Hepatocyte stability, cynomolgus monkey
Assay type: in vitro ADME
measurement.context: cynomolgus monkey, hepatocytes, 0.5 million cells/ml, read-out: CLint (mL/min/kg)
A collection of compounds and their measured log10 of CLint scaled at 2 μM
Quick note: numbers are log10 of CLint scaled at 2 μM, with mL/min/kg as the unit.

{"compound": "CCN(C)Cc1c(Cc2cccc(NS(=O)(=O)NC)c2F)c(=O)oc2cc(OC(=O)N(C)C)c(F)cc12", "log10 of CLint scaled at 2 μM": 1.99}

# input Write down log10 of CLint scaled at 2 μM measured for item CNS(=O)(=O)Nc1cccc(Cc2c(CN(C)C)c3ccc(OC(=O)N(C)C)cc3oc2=O)c1Cl
# output 1.98

====

experimental.details: Hepatocyte stability, beagle dog
Format: in vitro ADME
measurement.context: beagle, dog, hepatocytes, 0.5 million cells/ml, read-out: CLint (mL/min/kg)
Structures can show the parent of a compound that is named as a salt.
metric: CLint scaled at 2 μM (mL/min/kg)
Form entry: value (mL/min/kg) — number only.

Use the examples below as a reference point.
{"compound": "CCN(C)Cc1c(Cc2cccc(NS(=O)(=O)NC)c2F)c(=O)oc2cc(OC(=O)N(C)C)c(F)cc12", "CLint scaled at 2 μM (mL/min/kg)": 105}
{"compound": "CNS(=O)(=O)Nc1cccc(Cc2c(CN3CCNCC3)c3ccc(OC(=O)N(C)C)cc3oc2=O)c1Cl [Compound 246, hydrochloride]", "CLint scaled at 2 μM (mL/min/kg)": 20.5}
{"compound": "CCS(=O)(=O)Nc1cccc(Cc2c(CN3CCNCC3)c3cc(Cl)c(OC(=O)N(C)C)cc3oc2=O)c1Cl [Compound 257, hydrochloride]", "CLint scaled at 2 μM (mL/min/kg)": 66.1}
{"compound": "CCN(C)Cc1c(Cc2cccc(NS(=O)(=O)NC)c2Cl)c(=O)oc2cc(OC(=O)N(C)C)ccc12", "CLint scaled at 2 μM (mL/min/kg)": 130}
{"compound": "CNS(=O)(=O)Nc1cccc(Cc2c(CN(C)C)c3ccc(OC(=O)N(C)C)cc3oc2=O)c1Cl", "CLint scaled at 2 μM (mL/min/kg)": 58.7}

# input Give recorded CLint scaled at 2 μM. CNS(=O)(=O)Nc1cccc(Cc2c(CN3CCNCC3)c3cc(Cl)c(OC(=O)N(C)C)cc3oc2=O)c1Cl [Compound 256, hydrochloride]
# output 41.7

====

System: balb/c mouse hepatocytes
experimental.details: Hepatocyte stability, balb/c mouse
Format: in vitro ADME
measurement.context: 2 μM, 0.5 million cells/ml
Criterion: T1/2 strictly under 4 h. Met: Met. Not met: Not met.

{"molecule.smiles": "CCS(=O)(=O)Nc1cccc(Cc2c(CN(C)C)c3ccc(OC(=O)N(C)C)cc3oc2=O)c1F", "classification": "Not met"}
{"molecule.smiles": "CNS(=O)(=O)Nc1cccc(Cc2c(CN(C)C)c3ccc(OC(=O)N(C)C)cc3oc2=O)c1F", "classification": "Not met"}
{"molecule.smiles": "CNS(=O)(=O)Nc1cccc(Cc2c(CN(C)C)c3cc(F)c(OC(=O)N(C)C)cc3oc2=O)c1F", "classification": "Not met"}
{"molecule.smiles": "CCCS(=O)(=O)Nc1cccc(Cc2c(CN3CCNCC3)c3cc(Cl)c(OC(=O)N(C)C)cc3oc2=O)c1F", "classification": "Met"}

Proceed to the following item.
# input A record lists CNS(=O)(=O)Nc1nccc(Cc2c(CN(C)C)c3ccc(OC(=O)N(C)C)cc3oc2=O)c1F . Is its T1/2 below 4 h?
# output Met
